# TESTED TARGET: Human Thyroid Hormone Receptor β1 (TRβ1) (Homo sapiens, UniProt P10828)
# Sequence (P10828 whole entry): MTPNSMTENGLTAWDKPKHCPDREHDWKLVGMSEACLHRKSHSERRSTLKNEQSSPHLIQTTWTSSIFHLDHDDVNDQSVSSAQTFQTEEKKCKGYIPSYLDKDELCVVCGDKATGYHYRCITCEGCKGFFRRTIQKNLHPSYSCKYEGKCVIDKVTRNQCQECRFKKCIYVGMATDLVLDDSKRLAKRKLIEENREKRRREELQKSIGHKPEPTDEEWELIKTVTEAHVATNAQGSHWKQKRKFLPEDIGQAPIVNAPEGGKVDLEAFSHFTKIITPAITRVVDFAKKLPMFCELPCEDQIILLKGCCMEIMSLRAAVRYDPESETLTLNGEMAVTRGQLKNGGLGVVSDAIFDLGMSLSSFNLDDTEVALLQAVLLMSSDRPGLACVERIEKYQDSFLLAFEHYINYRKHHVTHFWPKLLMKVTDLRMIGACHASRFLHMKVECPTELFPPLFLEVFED
# PROCEDURE TEXT: Transcription activation test of human thyroid hormone receptor β1 (luciferase reporter in 293T cells)
# CONDITION SUMMARY: EC50 of transcription activation on TRβ1, 293T cells, luciferase activity after 24 hr; read-out: TRβ
pEC50: −log10 of the molar value.
PROPERTY LABEL: pEC50

Answered examples (6):
Cc1cc(OCC(=O)O)c(C)c(C)c1Cc1ccc(O)c(C2CCCCC2)n1 | 9.00
Cc1cc(OCC(=O)O)c(C)c(C)c1Cc1cc(F)c(O)c(C2CCCCC2)n1 | 8.00
Cc1cc(CCC(=O)O)c(C)c(C)c1Cc1ccc(O)c(C2CCCCC2)n1 | 8.22
Cc1cc(NC(=O)CC(=O)O)cc(C)c1Cc1ccc(O)c(C2CCCCCC2)n1 | 8.22
Cc1cc(OC(C)C(=O)O)c(C)c(C)c1Cc1ccc(O)c(C2CCCCC2)n1 (centres unmarked) | 8.05
Cc1cc(OCc2noc(=O)[nH]2)c(C)c(C)c1Cc1ccc(O)c(C2CCCCO2)n1 (centres unmarked) | 8.05

1: Cc1cc(OCC(=O)O)c(F)c(C)c1Cc1ccc(O)c(C2CCCCC2)n1
2: Cc1cc(OCC(=O)O)c(C)c(C)c1Oc1ccc(O)c(C(C)C)n1
Inquiry: Lab notebook, comparison: 1 versus 2 , higher pEC50 goes to which? Please reply using the label of the selected record.
Reply text: 1
(1: 9.15, 2: 8.15)
